meta.source: patent US8367724B2

Tested on: common mosquito (Culex pipens pallens) females
test-name: Mortality of common mosquito females, oil solution sprayed in a chamber (Test Example 2)
Format: in vivo
applied-conditions: 0.7 ml of 0.00625% oil solution sprayed in 70 cm cubic chamber; ten females; recovered after ten minutes; dead counted after 24 hours; 2 repetition
Protocol: Each 0.00625 parts of the present compounds (1) to (3) produced in the above production Examples was dissolved in 10 parts of dichloromethane, and the solution was mixed with 89.99375 parts of deodorized kerosene to prepare a 0.00625% oil solution. […]
Property: Mortality (%); scope: individual molecules
Provide a numeric answer, followed by its unit.

molecule | Mortality (%)
C=CCc1c(F)c(F)c(COC(=O)[C@@H]2[C@@H](C=C(C)C#N)C2(C)C)c(F)c1F (racemic) | 70%
CC(C#N)=C[C@@H]1[C@@H](C(=O)OCc2c(F)c(F)c(C)c(F)c2F)C1(C)C (racemic) | 95%
COCc1c(F)c(F)c(COC(=O)[C@@H]2[C@@H](C=C(C)C#N)C2(C)C)c(F)c1F [Comparative compound (4), reference compound] | 16%

Task: Let me know recorded Mortality (%) for COc1c(F)c(F)c(COC(=O)[C@@H]2[C@@H](C=C(C)C#N)C2(C)C)c(F)c1F (racemic) , thanks.
Output: 100%
